- Test Method Notes: Aqueous solubility (buffer vs acetonitrile/water, 24 h shaking, LC-UV)
- Type: physicochemical
- Particulars: kinetic from dmso stock, pH 2.2 buffer, 2.5% DMSO, ">" = more than 90% dissolved
Kindly supply the reported solubility at 24 h values for the records listed here.
The answer is to be given in µg/mL; state only the numeric part.

**Query** Consider the compound CS(C)(=O)=Nc1cc(-c2ccc(-c3nc4[nH]c(O[C@@H]5CO[C@H]6[C@@H]5OC[C@H]6O)nc4cc3Cl)cc2)ccn1 [Example 36] and give its measured solubility at 24 h.
**Result** 99

**Query** Consider the compound CN=S(C)(=O)c1ccc(-c2ccc(-c3nc4[nH]c(O[C@@H]5CO[C@H]6[C@@H]5OC[C@H]6O)nc4cc3Cl)cc2)nc1 (some centres unmarked) [Example 28] and give its measured solubility at 24 h.
**Result** 92

**Query** Consider the compound CN=S(C)(=O)c1ccc(-c2ccc(-c3nc4[nH]c(O[C@@H]5CO[C@H]6[C@@H]5OC[C@H]6O)nc4cc3Cl)cc2)cc1 (some centres unmarked) [Example 10] and give its measured solubility at 24 h.
**Result** 105

**Query** Consider the compound CS(C)(=O)=Nc1cnc(-c2ccc(-c3nc4[nH]c(O[C@@H]5CO[C@H]6[C@@H]5OC[C@H]6O)nc4cc3Cl)cc2)nc1 [Example 34] and give its measured solubility at 24 h.
**Result** 4

**Query** Consider the compound CS(=N)(=O)Cc1ccc(-c2ccc(-c3nc4[nH]c(O[C@@H]5CO[C@H]6[C@@H]5OC[C@H]6O)nc4cc3Cl)cc2)cc1 (some centres unmarked) [Example 52] and give its measured solubility at 24 h.
**Result** 42

**Query** Consider the compound CS(=N)(=O)c1ccc(-c2ccc(-c3nc4[nH]c(O[C@@H]5CO[C@H]6[C@@H]5OC[C@H]6O)nc4cc3Cl)cc2)nc1 (some centres unmarked) [Example 27] and give its measured solubility at 24 h.
**Result** 77

**Query** Consider the compound CS(C)(=O)=Nc1ccc(-c2ccc(-c3nc4[nH]c(O[C@@H]5CO[C@H]6[C@@H]5OC[C@H]6O)nc4cc3Cl)cc2)cc1 [Example 2] and give its measured solubility at 24 h.
**Result** 17

**Query** Consider the compound CS(=N)(=O)c1ccc(-c2ccc(-c3nc4[nH]c(O[C@@H]5CO[C@H]6[C@@H]5OC[C@H]6O)nc4cc3Cl)cc2)cc1 (some centres unmarked) [Example 23] and give its measured solubility at 24 h.
**Result** 69

**Query** Consider the compound CS(=O)(=NC#N)c1ccc(-c2ccc(-c3nc4[nH]c(O[C@@H]5CO[C@H]6[C@@H]5OC[C@H]6O)nc4cc3Cl)cc2)cc1 (some centres unmarked) [Example 7] and give its measured solubility at 24 h.
**Result** 15
